System: 885724-159-R-J1-PDC complex spheroid viability;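 also: spheroids exposed to agents for seven days before readout; percent of vehicle control viability where 100% = DMSO wells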
Experiment: Anticancer human tumor 885724-159-R-J1-PDC patient-derived pancreatic adenocarcinoma cell line growth inhibition [GQUAD]
Details: second compound 10 µM; first compound 0.1 µM; active compounds read low
Observation Type: viability, T/C (%)
Express the result in % but write the number alone.

What viability, T/C value was documented for this molecule, CCCS(=O)(=O)Nc1ccc(F)c(C(=O)c2c[nH]c3ncc(-c4ccc(Cl)cc4)cc23)c1F + Cc1[nH]c2ccc(F)cc2c1-c1nc2c3cccnc3c3ncccc3c2[nH]1 ?
73.4

What viability, T/C value was documented for this molecule, CC1COCCN1c1cc(C2(S(C)(=N)=O)CC2)nc(-c2ccnc3[nH]ccc23)n1 (stereo not drawn) + CN(C)c1ccc(Nc2c3ccc(NC(=O)CCN4CCCC4)cc3nc3cc(NC(=O)CCN4CCCC4)ccc23)cc1 ?
81.8

What viability, T/C value was documented for this molecule, CC1COCCN1c1cc(C2(O)CC3CCC(C2)O3)c2cnn(-c3ccn[nH]3)c2n1 (stereo not drawn) + Cc1[nH]c2ccc(F)cc2c1-c1nc2c3cccnc3c3ncccc3c2[nH]1 ?
69
